- Test system: Hs-578T
- Experiment: NCI tumour cell line growth inhibition, 48 h
Activity calls are given as the source filed them. No stated cut-off is given here; in the data, active = GI50 up to about 1.1 µM and inactive = higher.
Outcomes: Y (active), N (inactive)

>  <Molecule>
CC/N=C(\N)CSS(=O)(=O)O

>  <Target Or System>
Hs-578T

>  <Assigned Label>
N

$$$$
>  <Molecule>
Cc1ccc(/C=N/Nc2ccccn2)s1

>  <Target Or System>
Hs-578T

>  <Assigned Label>
N

$$$$
>  <Molecule>
CC(C)(C)C(=O)N(C(=S)OCc1ccccn1)c1ccccc1

>  <Target Or System>
Hs-578T

>  <Assigned Label>
N

$$$$
>  <Molecule>
N=C(CC(=O)NOC(=O)c1ccccc1)NOC(=O)c1ccccc1

>  <Target Or System>
Hs-578T

>  <Assigned Label>
N

$$$$
>  <Molecule>
COc1cccc(/C=C2/S/C(=N/Nc3nc(C)c(C(C)=O)s3)NC2=O)c1O

>  <Target Or System>
Hs-578T

>  <Assigned Label>
N

$$$$
>  <Molecule>
COC(=O)C1=C(C)NC(C)=C([N+](=O)[O-])C1c1cccc(NO)c1 (centres undefined)

>  <Target Or System>
Hs-578T

>  <Assigned Label>
N

$$$$
>  <Molecule>
CCc1nc2c(n1CC)C(=O)c1ccccc1C2=O

>  <Target Or System>
Hs-578T

>  <Assigned Label>
N

$$$$
>  <Molecule>
CN(C)CC1CCC/C(=C\c2ccc(OC(=O)c3ccc(Cl)cc3)cc2)C1=O (centres undefined)

>  <Target Or System>
Hs-578T

>  <Assigned Label>
N

$$$$
>  <Molecule>
COc1ccc(/N=N/C(=O)NC(CC(C)C)C(N)=O)cc1 (centres undefined)

>  <Target Or System>
Hs-578T

>  <Assigned Label>
N

$$$$
>  <Molecule>
O=C1NC(c2cccc3ccccc23)Nc2ccccc21 (centres undefined)

>  <Target Or System>
Hs-578T

>  <Assigned Label>
Y

$$$$
>  <Molecule>
Cc1c(Cl)cc(C(C)(C)C)c(O)c1Cc1c(C)c(Cl)cc(C(C)(C)C)c1O

>  <Target Or System>
Hs-578T

>  <Assigned Label>
Y

$$$$
>  <Molecule>
Cc1ccc(C(=O)/C=C(\O)C(=O)NN=C(c2ccccc2)c2ccccc2)cc1

>  <Target Or System>
Hs-578T

>  <Assigned Label>
N

$$$$
>  <Molecule>
Cc1ccc2ccc(=O)oc2c1

>  <Target Or System>
Hs-578T

>  <Assigned Label>
N

$$$$
>  <Molecule>
Cc1c[nH]c(C(=O)O)c1-c1cccn1-c1ccc(Cl)cc1[N+](=O)[O-]

>  <Target Or System>
Hs-578T

>  <Assigned Label>
N

$$$$
>  <Molecule>
CSC1=N/C(=C\c2c[nH]c3ccccc23)C(=O)N1

>  <Target Or System>
Hs-578T

>  <Assigned Label>
N

$$$$
>  <Molecule>
COc1ccc(/C=C2\NC(=S)N(/C=C3\C(=O)Oc4ccccc4C3=O)C2=O)cc1OC

>  <Target Or System>
Hs-578T

>  <Assigned Label>
N

$$$$
>  <Molecule>
FC(F)(F)c1ccc2c(c1)nc1n2C(c2c(Cl)cccc2Cl)SC1 (centres undefined)

>  <Target Or System>
Hs-578T

>  <Assigned Label>
N

$$$$
>  <Molecule>
OC1(CCc2ccccc2)COC(C(F)(F)F)(C(F)(F)F)C1 (centres undefined)

>  <Target Or System>
Hs-578T

>  <Assigned Label>
N

$$$$
>  <Molecule>
O=C1C=CC(=O)c2c1cc1ccccc1c2O

>  <Target Or System>
Hs-578T

>  <Assigned Label>
N

$$$$
>  <Molecule>
COC1(OC)CC(CO)(COc2cc(Cl)nc(N)n2)C1

>  <Target Or System>
Hs-578T

>  <Assigned Label>
N

$$$$
>  <Molecule>
CN(C)N1C(=O)C(=O)N(c2cccc3ccccc23)C1=O

>  <Target Or System>
Hs-578T

>  <Assigned Label>
N

$$$$
>  <Molecule>
OCCNCCN1CCN(CCCN2c3ccccc3Sc3ccc(C(F)(F)F)cc32)CC1

>  <Target Or System>
Hs-578T

>  <Assigned Label>
N

$$$$
>  <Molecule>
CN1CCN(C(=O)CCC(=O)Nc2cc3c(c4ccccc24)-c2ccc4ccccc4c2C3)CC1

>  <Target Or System>
Hs-578T

>  <Assigned Label>
N

$$$$
>  <Molecule>
N=C(N)NCC(N)C(=O)O (centres undefined)

>  <Target Or System>
Hs-578T

>  <Assigned Label>
N

$$$$
